Give measured IC50 for each item. Keep answers brief.
Biological target: human SSTR3 (Homo sapiens)
Construct: expressed in transfected cells; host or cells: CHO-K1 cells and CCL39 cells
Sequence (P32745 whole entry): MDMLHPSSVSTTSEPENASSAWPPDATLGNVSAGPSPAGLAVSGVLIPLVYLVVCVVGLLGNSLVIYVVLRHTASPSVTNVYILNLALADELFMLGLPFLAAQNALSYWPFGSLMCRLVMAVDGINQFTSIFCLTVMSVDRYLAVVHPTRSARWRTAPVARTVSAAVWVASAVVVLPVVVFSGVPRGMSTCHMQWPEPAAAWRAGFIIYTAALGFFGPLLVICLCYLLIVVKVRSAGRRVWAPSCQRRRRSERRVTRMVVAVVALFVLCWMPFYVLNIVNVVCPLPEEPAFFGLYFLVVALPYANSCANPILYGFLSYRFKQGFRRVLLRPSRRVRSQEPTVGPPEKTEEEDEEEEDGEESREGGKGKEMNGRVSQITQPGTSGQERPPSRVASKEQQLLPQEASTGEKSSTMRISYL
Experiment: Displacement of 125I-[Leu8,D-Trp22,Tyr25]-SRIF-28 from cloned SSTR3 (receptor autoradiography)
Assay type: binding
Conditions: read-out: IC50 (nM) mSSTR3
*1 amine or outer side, *2 acyl side, *3 side chain or, on linkers, in order; H or OH if unused. Where a SMILES comes first, the peptide text is derived from it. Bridges are numbered along the chain shown (N, C = ends). [ ]: non-standard residue; d: D form. The star is where a group is joined. NMePhe(4-CH2NHiPr) = CN[C@@H](Cc1ccc(CNC(C)C)cc1)C(=O)O; Tyr(Nα-carbamoyl) = NC(=O)N[C@@H](Cc1ccc(O)cc1)C(=O)*; Phe(4-CH2NHiPr) = CC(C)NCc1ccc(C[C@H](N)C(=O)O)cc1; Tyr(3-I) = N[C@@H](Cc1ccc(O)c(I)c1)C(=O)O; X3 = NC(=O)N[C@@H](Cc1ccc(O)c(I)c1)C(=O)*; X1 = NC(=O)N[C@@H](CS[*:2])C(=O)[*:1]; d2Nal = N[C@H](Cc1ccc2ccccc2c1)C(=O)O; X2 = NC(=O)N[C@H](CS[*:2])C(=O)[*:1]; NMeS = CN[C@@H](CO)C(=O)O

Check out these entries, answers already filled in.
[
  {
    "compound": "CC(C)NCc1ccc(C[C@H]2C(=O)N[C@@H]([C@@H](C)O)C(=O)N[C@@H](Cc3ccc(O)cc3)C(=O)N[C@@H]([C@@H](C)O)C(=O)N[C@@H](CO)C(=O)N[C@H](C(=O)O)CSSC[C@H](NC(N)=O)C(=O)N[C@@H](CCCCN)C(=O)N[C@@H](Cc3ccccc3)C(=O)N[C@@H](Cc3ccccc3)C(=O)N[C@H](Cc3c[nH]c4ccccc34)C(=O)N2C)cc1 [Peptide No. 12] (KFF[dW][NMePhe(4-CH2NHiPr)]TYTSC-OH; linker N-10 via X1)",
    "IC50": "> 1000 nM"
  },
  {
    "compound": "CC(C)NCc1ccc(C[C@H]2C(=O)N[C@@H]([C@@H](C)O)C(=O)N[C@@H](Cc3ccc(O)c(I)c3)C(=O)N[C@@H]([C@@H](C)O)C(=O)N[C@@H](CO)C(=O)N[C@H](C(=O)O)CSSC[C@H](NC(N)=O)C(=O)N[C@@H](CCCCN)C(=O)N[C@@H](Cc3ccccc3)C(=O)N[C@@H](Cc3ccccc3)C(=O)N[C@H](Cc3c[nH]c4ccccc34)C(=O)N2C)cc1 [Peptide No. 12D] (KFF[dW][NMePhe(4-CH2NHiPr)]T[Tyr(3-I)]TSC-OH; linker N-10 via X1)",
    "IC50": "> 1000 nM"
  },
  {
    "compound": "CC(C)NCc1ccc(C[C@@H]2NC(=O)[C@@H](Cc3c[nH]c4ccccc34)NC(=O)[C@H](Cc3ccccc3)NC(=O)[C@H](Cc3ccccc3)NC(=O)[C@H](CCCCN)NC(=O)[C@@H](N)CSSC[C@@H](C(=O)O)NC(=O)[C@H](CO)N(C)C(=O)[C@H]([C@@H](C)O)NC(=O)[C@H](Cc3ccccc3)NC(=O)[C@H]([C@@H](C)O)NC2=O)cc1 [Peptide No. 22A] (H-CKFF[dW][Phe(4-CH2NHiPr)]TFT[NMeS]C-OH; disulfide 1-11)",
    "IC50": "600 nM"
  },
  {
    "compound": "CC(C)NCc1ccc(C[C@@H]2NC(=O)[C@@H](Cc3c[nH]c4ccccc34)NC(=O)[C@H](Cc3ccccc3)NC(=O)[C@H](Cc3ccccc3)NC(=O)[C@H](CCCCN)NC(=O)[C@H](NC(N)=O)CSSC[C@@H](C(=O)O)NC(=O)[C@H](CO)NC(=O)[C@H]([C@@H](C)O)NC(=O)[C@H](Cc3ccc(O)cc3)NC(=O)[C@H]([C@@H](C)O)NC2=O)cc1 [Peptide No. 12C] (KFF[dW][Phe(4-CH2NHiPr)]TYTSC-OH; linker N-10 via X2)",
    "IC50": "> 1000 nM"
  }
]

// batch mode: one IC50 value per listed entry
1. CC(C)NCc1ccc(C[C@@H]2NC(=O)[C@@H](Cc3c[nH]c4ccccc34)NC(=O)[C@H](Cc3ccccc3)NC(=O)[C@H](Cc3ccccc3)NC(=O)[C@H](CCCCN)NC(=O)[C@H](NC(=O)[C@H](Cc3ccc(O)cc3)NC(N)=O)CSSC[C@@H](C(=O)O)NC(=O)[C@H](CO)NC(=O)[C@H]([C@@H](C)O)NC(=O)[C@H](Cc3ccccc3)NC(=O)[C@H]([C@@H](C)O)NC2=O)cc1 [Peptide No. 14C] ({Tyr(Nα-carbamoyl)}-[dC]KFF[dW][Phe(4-CH2NHiPr)]TFTSC-OH; disulfide 1-11)
2. CC(C)NCc1ccc(C[C@H]2C(=O)N[C@@H]([C@@H](C)O)C(=O)N[C@@H](Cc3ccc(O)cc3)C(=O)N[C@@H]([C@@H](C)O)C(=O)N[C@@H](CO)C(=O)N[C@H](C(=O)O)CSSC[C@H](N)C(=O)N[C@@H](CCCCN)C(=O)N[C@@H](Cc3ccccc3)C(=O)N[C@@H](Cc3ccccc3)C(=O)N[C@H](Cc3c[nH]c4ccccc34)C(=O)N2C)cc1 [Peptide No. 2] (H-CKFF[dW][NMePhe(4-CH2NHiPr)]TYTSC-OH; disulfide 1-11)
3. CC(C)NCc1ccc(C[C@H]2C(=O)N[C@@H]([C@@H](C)O)C(=O)N[C@@H](Cc3ccc(O)cc3)C(=O)N[C@@H]([C@@H](C)O)C(=O)N[C@@H](CO)C(=O)N[C@H](C(=O)O)CSSC[C@H](NC(N)=O)C(=O)N[C@@H](CCCCN)C(=O)N[C@@H](Cc3ccccc3)C(=O)N[C@@H](Cc3ccccc3)C(=O)N[C@H](Cc3ccc4ccccc4c3)C(=O)N2C)cc1 [Peptide No. 16] (KFF[d2Nal][NMePhe(4-CH2NHiPr)]TYTSC-OH; linker N-10 via X1)
4. CC(C)NCc1ccc(C[C@@H]2NC(=O)[C@@H](Cc3c[nH]c4ccccc34)NC(=O)[C@H](Cc3ccccc3)NC(=O)[C@H](Cc3ccccc3)NC(=O)[C@H](CCCCN)NC(=O)[C@@H](NC(=O)[C@H](Cc3ccc(O)c(I)c3)NC(N)=O)CSSC[C@@H](C(=O)O)NC(=O)[C@H](CO)NC(=O)[C@H]([C@@H](C)O)NC(=O)[C@H](Cc3ccccc3)NC(=O)[C@H]([C@@H](C)O)NC2=O)cc1 [Peptide No. 14B] (X3-CKFF[dW][Phe(4-CH2NHiPr)]TFTSC-OH; disulfide 1-11)
5. CC(C)NCc1ccc(C[C@H]2C(=O)N[C@@H]([C@@H](C)O)C(=O)N[C@@H](Cc3ccccc3)C(=O)N[C@@H]([C@@H](C)O)C(=O)N[C@@H](CO)C(=O)N[C@H](C(=O)O)CSSC[C@H](N)C(=O)N[C@@H](CCCCN)C(=O)N[C@@H](Cc3ccccc3)C(=O)N[C@@H](Cc3ccccc3)C(=O)N[C@H](Cc3c[nH]c4ccccc34)C(=O)N2C)cc1 [Peptide No. 13] (H-CKFF[dW][NMePhe(4-CH2NHiPr)]TFTSC-OH; disulfide 1-11)
6. CC(C)NCc1ccc(C[C@@H]2NC(=O)[C@@H](Cc3c[nH]c4ccccc34)NC(=O)[C@H](Cc3ccccc3)NC(=O)[C@H](Cc3ccccc3)NC(=O)[C@H](CCCCN)NC(=O)[C@@H](NC(N)=O)CSSC[C@@H](C(=O)O)NC(=O)[C@H](CO)NC(=O)[C@H]([C@@H](C)O)NC(=O)[C@H](Cc3ccc(O)cc3)NC(=O)[C@H]([C@@H](C)O)NC2=O)cc1 [Peptide No. 12A] (KFF[dW][Phe(4-CH2NHiPr)]TYTSC-OH; linker N-10 via X1)

(A)
1: > 1000 nM; 2: > 1000 nM; 3: > 1000 nM; 4: 290 nM; 5: 610 nM; 6: > 1000 nM
